measured.on: Toll-like receptor 7 (Homo sapiens)
assay.remarks: Agonist activity at human TLR7 by reporter cell based assay
pEC50: −log10 of the molar value.
Each record here notes measured pEC50.

{"query.smiles": "CCCCc1nc2c(N)nc3ccccc3c2n1CCCN(Cc1cccc(C(=O)OC)c1)C(=O)CN1CC[C@@H](O)C1", "pEC50": 6.40}
{"query.smiles": "CCCC[C@@H](CCO)Nc1nc(N)nc(C)c1Cc1ccc(CC(=O)OCCCCN(C)C)cc1F", "pEC50": 6.70}
{"query.smiles": "CCCCc1nc2c(N)nc3ccccc3c2n1CCCN(Cc1cccc(C(=O)OC)c1)C(=O)CN(C)C1CCOCC1", "pEC50": 6.90}
{"query.smiles": "CCCCc1nc2c(N)nc3ccccc3c2n1CCCN(Cc1cccc(C(=O)OC)c1)C(=O)CN1CCCN(C(C)=O)CC1", "pEC50": 6.30}
{"query.smiles": "CCCCc1nc2c(N)nc3ccccc3c2n1CCCN(Cc1cccc(C(=O)OC)c1)C(=O)CN(C)CCOC", "pEC50": 6.80}
{"query.smiles": "CCCCCNc1nc(N)nc(C)c1CCCN(Cc1ccc(CC(=O)OC)cc1)C(=O)CN1CCCCC1", "pEC50": 6.20}
{"query.smiles": "CCCC[C@@H](CO)Nc1nc(N)nc(C)c1Cc1ccc(CC(=O)OCCCCN(C)C)cc1", "pEC50": 5.90}
{"query.smiles": "CCCCc1nc2c(N)nc3ccccc3c2n1CCCN(Cc1cccc(C(=O)OC)c1)C(=O)CN1CCCCCC1", "pEC50": 7.10}

====

measured.on: Toll-like receptor 8 (Homo sapiens)
Sequence (Q9NR97 whole entry): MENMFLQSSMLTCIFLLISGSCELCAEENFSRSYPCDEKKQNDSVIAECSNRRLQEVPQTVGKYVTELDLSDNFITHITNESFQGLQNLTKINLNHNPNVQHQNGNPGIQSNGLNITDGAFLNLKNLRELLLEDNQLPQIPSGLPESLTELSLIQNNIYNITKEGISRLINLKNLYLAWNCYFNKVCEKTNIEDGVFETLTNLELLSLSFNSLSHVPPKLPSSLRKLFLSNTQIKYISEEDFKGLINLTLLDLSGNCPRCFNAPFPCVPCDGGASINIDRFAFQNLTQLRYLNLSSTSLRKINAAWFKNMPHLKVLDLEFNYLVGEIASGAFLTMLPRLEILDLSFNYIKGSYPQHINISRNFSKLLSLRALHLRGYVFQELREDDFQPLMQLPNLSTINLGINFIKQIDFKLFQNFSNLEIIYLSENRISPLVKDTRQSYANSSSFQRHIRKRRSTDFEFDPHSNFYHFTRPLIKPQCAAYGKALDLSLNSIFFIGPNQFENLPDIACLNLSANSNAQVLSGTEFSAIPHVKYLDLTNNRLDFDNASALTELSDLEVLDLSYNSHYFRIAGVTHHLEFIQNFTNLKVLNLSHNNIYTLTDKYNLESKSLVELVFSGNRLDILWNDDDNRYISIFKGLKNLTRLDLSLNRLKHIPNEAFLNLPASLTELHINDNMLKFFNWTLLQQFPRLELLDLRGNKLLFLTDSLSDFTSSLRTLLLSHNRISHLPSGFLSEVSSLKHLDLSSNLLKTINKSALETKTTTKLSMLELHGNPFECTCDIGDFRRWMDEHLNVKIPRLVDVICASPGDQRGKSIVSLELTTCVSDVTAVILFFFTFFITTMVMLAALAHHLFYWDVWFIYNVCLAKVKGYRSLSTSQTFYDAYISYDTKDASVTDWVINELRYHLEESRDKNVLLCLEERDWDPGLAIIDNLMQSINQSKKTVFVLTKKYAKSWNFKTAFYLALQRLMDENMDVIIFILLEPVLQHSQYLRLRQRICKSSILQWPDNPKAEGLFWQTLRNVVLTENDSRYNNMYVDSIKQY
assay.remarks: Agonist activity at human TLR8 in HEK-Blue hTLR8 cells assessed as activation of NFkappaB by SEAP reporter gene based spectrophotometry assay
Assay type: cell-based
experimental.conditions: hek-blue htlr8
Each record here notes measured EC50.
measured.property: EC50 (nM)

{"query.smiles": "CC(C)Cc1nc2c(N)nc3ccccc3c2s1", "measured.property": "EC50", "readout.unit": "nM", "recorded.number": 1550}
{"query.smiles": "CCCc1nc2c(N)nc3ccc(N)cc3c2s1", "measured.property": "EC50", "readout.unit": "nM", "recorded.number": 3880}
{"query.smiles": "CCCc1nc2c(NS(C)(=O)=O)nc3ccccc3c2s1", "measured.property": "EC50", "readout.unit": "nM", "recorded.number": 10600}
{"query.smiles": "CCCc1nc2c(NC(=O)CN=[N+]=[N-])nc3ccccc3c2s1", "measured.property": "EC50", "readout.unit": "nM", "recorded.number": 1200}
{"query.smiles": "CCCc1nc2c(N)nc3ccc(N=[N+]=[N-])cc3c2s1", "measured.property": "EC50", "readout.unit": "nM", "recorded.number": 2060}
{"query.smiles": "Nc1nc2ccccc2c2sc(CCC(F)(F)F)nc12", "measured.property": "EC50", "readout.unit": "nM", "recorded.number": 1610}
{"query.smiles": "CCc1nc2c(N)nc3ccccc3c2s1", "measured.property": "EC50", "readout.unit": "nM", "recorded.number": 810}

====

measured.on: UniProtKB Q9NYK1
assay.remarks: Agonist activity at human TLR7 in HEK-Blue hTLR7 cells assessed as activation of NFkappaB by SEAP reporter gene based spectrophotometry assay
Type: cell-based

{"query.smiles": "CCCCc1nc2c(N)nc(NCc3ccc(OC)cc3)cc2n1Cc1ccccc1", "EC50, nM": 75}
{"query.smiles": "CCCCc1nc2c(N)nc(NCc3cccnc3)cc2n1Cc1ccccc1", "EC50, nM": 250}
{"query.smiles": "CCCCc1nc2c(N)nc(NCC3CCCCC3)cc2n1Cc1ccccc1", "EC50, nM": 320}

====

measured.on: Toll-like receptor 7 (Homo sapiens, UniProt Q9NYK1)
Sequence (Q9NYK1 whole entry): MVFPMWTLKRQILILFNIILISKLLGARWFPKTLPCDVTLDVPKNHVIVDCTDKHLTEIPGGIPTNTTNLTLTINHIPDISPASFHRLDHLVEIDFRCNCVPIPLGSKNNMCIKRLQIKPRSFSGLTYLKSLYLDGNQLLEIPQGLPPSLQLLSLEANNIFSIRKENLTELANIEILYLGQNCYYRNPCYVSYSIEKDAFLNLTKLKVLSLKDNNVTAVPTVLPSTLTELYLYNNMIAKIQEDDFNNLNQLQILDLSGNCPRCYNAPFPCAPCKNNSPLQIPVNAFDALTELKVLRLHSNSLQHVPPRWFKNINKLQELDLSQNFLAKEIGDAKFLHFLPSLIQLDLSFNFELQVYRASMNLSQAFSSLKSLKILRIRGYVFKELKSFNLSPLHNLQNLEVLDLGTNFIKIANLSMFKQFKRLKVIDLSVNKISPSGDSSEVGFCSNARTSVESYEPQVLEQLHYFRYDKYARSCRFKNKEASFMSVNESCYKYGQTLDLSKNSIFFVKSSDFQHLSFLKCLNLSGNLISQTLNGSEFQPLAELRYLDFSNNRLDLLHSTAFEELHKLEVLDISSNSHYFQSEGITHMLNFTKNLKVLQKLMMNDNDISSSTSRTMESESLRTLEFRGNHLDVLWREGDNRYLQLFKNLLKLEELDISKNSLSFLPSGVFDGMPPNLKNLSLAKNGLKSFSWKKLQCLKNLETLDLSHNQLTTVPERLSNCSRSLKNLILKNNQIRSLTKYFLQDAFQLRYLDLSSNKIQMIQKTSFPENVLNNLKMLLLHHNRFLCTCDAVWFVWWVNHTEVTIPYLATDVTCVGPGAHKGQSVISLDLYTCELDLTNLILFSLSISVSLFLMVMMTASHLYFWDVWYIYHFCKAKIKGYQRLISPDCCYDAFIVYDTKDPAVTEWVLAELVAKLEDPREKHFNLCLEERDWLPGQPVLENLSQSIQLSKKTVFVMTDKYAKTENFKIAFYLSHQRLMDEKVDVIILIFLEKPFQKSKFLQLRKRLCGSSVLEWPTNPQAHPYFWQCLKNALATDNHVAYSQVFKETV
assay.remarks: Agonist activity at recombinant human TLR7 transfected in HEK293 cells assessed as induction of SEAP production incubated overnight by SEAP reporter gene based assay
Assay type: cell-based
measured.property: EC50 (nM)

{"query.smiles": "CCC[C@@H](CCO)Nc1nc(N)nc(C)c1Cc1ccc(CNC)cc1OC", "readout.unit": "nM", "value.relation.sign": "=", "recorded.number": 3.02}
{"query.smiles": "CCC[C@@H](CO)Nc1nc(N)nc(C)c1Cc1ccc(CN2CCN(C)CC2)cc1OC", "readout.unit": "nM", "value.relation.sign": "<", "recorded.number": 6.31}
{"query.smiles": "CCC[C@@H](CCO)Nc1nc(N)nc(C)c1Cc1ccc(CNCCC(N)=O)cc1OC", "readout.unit": "nM", "value.relation.sign": "=", "recorded.number": 81.3}
{"query.smiles": "CCC[C@@H](CCO)Nc1nc(N)nc(C)c1Cc1ccc(CN2CCN(C)CC2)cc1OC", "readout.unit": "nM", "value.relation.sign": "<", "recorded.number": 1.95}
{"query.smiles": "CCC[C@@H](CO)Nc1nc(N)nc(C)c1Cc1ccc(CN(C)C)cc1OC", "readout.unit": "nM", "value.relation.sign": "=", "recorded.number": 2.29}

====

measured.on: Toll-like receptor 7 (Homo sapiens)
assay.remarks: Agonist activity at human TLR7 by reporter cell based assay
pEC50: −log10 of the molar value.

{"compound": "CCCC[C@@H](CCO)Nc1nc(N)nc(C)c1Cc1ccc(CC(=O)OCCCCN(C)C)cc1", "pEC50": 7.60}
{"compound": "CCCCc1nc2c(N)nc3ccccc3c2n1CCCN(Cc1cccc(C(=O)OC)c1)C(=O)CN1C[C@@H](C)O[C@@H](C)C1", "pEC50": 6.00}
{"compound": "CCCCc1nc2c(N)nc3ccccc3c2n1CCCN(Cc1cccc(C(=O)OC)c1)C(=O)CN1CCC1", "pEC50": 6.60}
{"compound": "CCCCc1nc2c(N)nc3ccccc3c2n1CCCN(Cc1cccc(C(=O)OC)c1)C(=O)CN1CCN(S(C)(=O)=O)CC1", "pEC50": 6.10}
{"compound": "CCCCc1nc2c(N)nc3ccccc3c2n1CCCN(Cc1cccc(C(=O)OC)c1)C(=O)CN1CCC(O)C1 (configuration not stated)", "pEC50": 6.40}
{"compound": "CCCCc1nc2c(N)nc3ccccc3c2n1CCCN(Cc1cccc(C(=O)OC)c1)C(=O)CN1CCCN(S(C)(=O)=O)CC1", "pEC50": 6.20}
{"compound": "CCCCc1nc2c(N)nc3ccccc3c2n1CCCN(CCCN1CCN(C)CC1)Cc1cccc(C(=O)OC)c1", "pEC50": 6.60}
{"compound": "CCCCc1nc2c(N)nc3ccccc3c2n1CCCN(Cc1cccc(C(=O)OC)c1)C(=O)CN1CCCOCC1", "pEC50": 6.40}
{"compound": "CCCCc1nc2c(N)nc3ccccc3c2n1CCCN(Cc1cccc(C(=O)OC)c1)C1CCN(C)CC1", "pEC50": 6.50}
{"compound": "CCCCc1nc2c(N)nc3ccccc3c2n1CCCN(CCCN(C)CC)Cc1cccc(C(=O)OC)c1", "pEC50": 6.80}
{"compound": "CCCCc1nc2c(N)nc3ccccc3c2n1CCCN(Cc1cccc(C(=O)OC)c1)C(=O)CN1CCCN(C)CC1", "pEC50": 6.60}
{"compound": "CCCCc1nc2c(N)nc3ccccc3c2n1CCCN(Cc1cccc(C(=O)OC)c1)C(=O)CN1CCC(C(=O)N(C)C)CC1", "pEC50": 6.20}
{"compound": "CCCCc1nc2c(N)nc3ccccc3c2n1CCCN(Cc1cccc(C(=O)OC)c1)C(=O)CN(C)CCCC", "pEC50": 6.90}
{"compound": "CCCCc1nc2c(N)nc3ccccc3c2n1CCCN(Cc1cccc(C(=O)OC)c1)C(=O)CN1CCCN(C(=O)NCC)CC1", "pEC50": 5.90}
{"compound": "CCCC[C@@H](CCO)Nc1nc(N)nc(C)c1Cc1ccc(CC(=O)OCC2CCN(C)CC2)cc1F", "pEC50": 7.40}
{"compound": "CCCCc1nc2c(N)nc3ccccc3c2n1CCCN(Cc1cccc(C(=O)OC)c1)C(=O)CN1CCN(C)CC1", "pEC50": 7.10}
{"compound": "CCCCc1nc2c(N)nc3ccccc3c2n1CCCN(Cc1cccc(C(=O)OC)c1)C(=O)CN1CCN(CCO)CC1", "pEC50": 6.30}
